- ASSAY_SYSTEM: Small ubiquitin-related modifier 1 (Homo sapiens) (UniProt P63165)
- Sequence (P63165 whole entry, looked up): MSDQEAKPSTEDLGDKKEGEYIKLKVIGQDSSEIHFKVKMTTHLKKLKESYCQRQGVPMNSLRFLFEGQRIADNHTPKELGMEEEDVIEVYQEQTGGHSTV
- ASSAY_COMMENT: modulators of SUMO1 protein-protein interactions, primary screen, biochemical, uHTS (AID 602429)
- CONDITION_DESCRIPTION: SUMO1 binding to a labelled peptide, TR-FRET, 1 h; at 20 µM; active compounds read high
The campaign covered roughly 360,000 compounds. About 1,200 (0.33%) were called active. This excerpt belongs to a sample that is enriched for actives.
REPORTED_METRIC: inhibition (%)

>>> reading("O=C(CSc1nc(C2CC2)nc2ccccc12)Nc1ccc2c(c1)OCCO2")
-1.95
>>> reading("Oc1ccc(N=Cc2sc3ccccc3c2Cl)cc1")
43.8
>>> reading("Cc1nc([N+](=O)[O-])cn1CC(=O)Nc1ccc2c(c1)OCO2")
-6.05
>>> reading("CCN(CC(=O)N1CCCC1)S(=O)(=O)c1ccc(F)cc1")
0.769
>>> reading("O=C(CSc1nc(C2CC2)nc2ccccc12)Nc1cccc(O)c1")
45.7
>>> reading("CCCS(=O)(=O)N1CCC(C(=O)NCCCN(C)Cc2ccccc2)CC1")
3.93
>>> reading("O=C(CCNC(=O)c1ccc(Br)cc1)Nc1cccc(S(=O)(=O)N2CCCCC2)c1")
0.625
>>> reading("COc1cc(OC)c(OC)cc1/C=N/Nc1ncnc2c1[nH]c1ccc(C)cc12")
60.7
>>> reading("O=C(CCN1C(=O)c2ccncc2C1=O)Nc1ccc2c(c1)OCCO2")
-14.5
>>> reading("C/C(CC(=O)NC(C)c1ccccc1)=N\\NC(N)=S (configuration not stated)")
-2.76
>>> reading("Cc1ccc(C(=O)O)cc1-c1ccc(/C=C2\\SC(=O)N(CC(=O)Nc3ccc4c(c3)OCO4)C2=O)o1")
106
>>> reading("O=S(=O)(c1ccccc1)N1CN(Cc2ccc(F)cc2)c2nc3ccccc3nc21")
-3.38
>>> reading("OCCc1ccc(NCCc2ccco2)cc1")
4
>>> reading("Cc1ccc2[nH]c3c(=O)n(Cc4ccccn4)cnc3c2c1")
2.63
>>> reading("O=C(NCCCN1CCOCC1)c1ccccc1NS(=O)(=O)c1ccc(F)cc1")
2.97
>>> reading("CCC(C)CCN1CCN=C1N(C)C (configuration not stated)")
1.08
>>> reading("O=C(Nc1nnc(SCc2c(Cl)cccc2Cl)s1)C1CCCO1 (configuration not stated)")
4.7
>>> reading("Cc1ccccc1S(=O)(=O)Cc1ccc(C(=O)NCCN2CCCCC2C)o1 (configuration not stated)")
-2.78
>>> reading("CCOC(=O)Cn1c2c(c(-c3ccccc3OC)cc1=O)CCCC2")
-0.83
>>> reading("Cc1cc(C)c2nc(NC(=O)C3CCCO3)sc2c1 (configuration not stated)")
-1.66
>>> reading("Cc1cc(C)n2nc(C(=O)OC(C)C(=O)c3cc(C)c(C)cc3C)nc2n1 (configuration not stated)")
1.78
>>> reading("C[C@H]([C@@H](O)[C@@H](O)[C@@H](C)C(C)(C)C)[C@H]1CC[C@H]2C3CC[C@H]4C[C@H](OS(=O)(=O)O)[C@@H](OS(=O)(=O)O)C[C@]4(C)[C@H]3CC[C@]12C (some centres not stated)")
57.1

----------
- ASSAY_SYSTEM: Small ubiquitin-related modifier 1 (Homo sapiens) (UniProt P63165)
- ASSAY_COMMENT: modulators of SUMO1 protein-protein interactions, primary screen, biochemical, uHTS (AID 602429)
- CONDITION_DESCRIPTION: SUMO1 binding to a labelled peptide, TR-FRET, 1 h; at 20 µM
In all, about 360,000 compounds went through this assay and about 1,200 (0.33%) were called active. Cut-off read from the data, not from the text of the source: active = inhibition above about 37%; inactive = the rest. The list comes from a sample in which actives are over-represented; it also holds close analogues and randomly drawn compounds.
Outcome codes: t for active, f for inactive

>>> label_value("CCC(=O)c1ccc(OCC(O)CN2CCN(c3cccc(C(F)(F)F)c3)CC2)cc1 (stereo not given)")
"f"
>>> label_value("Nc1c(Cl)cc(S(N)(=O)=O)cc1S(N)(=O)=O")
"f"
>>> label_value("Cn1c(SCC(=O)Nc2ccc(N3CCOCC3)cc2)nnc1C(F)(F)F")
"f"
>>> label_value("C=CCCC(=O)Nc1nc(C)c(-c2csc(Nc3ccc(Cl)cc3)n2)s1")
"f"
>>> label_value("OC(COc1ccc2c(c1)CCC2)CN1CCN(c2cccc(Cl)c2)CC1 (stereo not given)")
"f"
>>> label_value("CCN1CCCC1CNC(=O)c1ccc2c(c1)NC(=O)/C(=C\\c1ccccc1F)S2 (stereo not given)")
"f"
>>> label_value("CCCCN(C)CCNC(=O)C1CCCN(S(=O)(=O)c2cccc3nsnc23)C1 (stereo not given)")
"f"
>>> label_value("CCCCCCC(=O)Nc1nc(C)c(-c2csc(Nc3cccc(OC)c3)n2)s1")
"t"
>>> label_value("COc1ccc(C(=O)NC2(C(F)(F)F)NC(=O)N(CCCc3ccccc3)C2=O)c(OC)c1OC (stereo not given)")
"f"
>>> label_value("CCN1CCCC1CNC(=O)c1cc2c(=O)n(C)c3ccccc3c2n1C (stereo not given)")
"t"

Source of measurements: PubChem BioAssay AID602429
